- Tested on: NCI/ADR-RES ovarian
- measurement_protocol: NCI-60 one-dose screen, 48 h (100 = growth as untreated, 0 = no growth, -100 = all killed)
- experimental_context: 10 µM unless noted
Compounds without any hit were thinned out: in the full panel of roughly 83,000, 20% have a hit. Calls of active or inactive are those of the source. Rule for the calls: active = growth percent below 10; inactive = the rest.
assay_metric: growth

{"compound": "O=C1C=CC(=O)N1C1c2ccccc2-c2ccccc21", "value": "100% (inactive)"}
{"compound": "O=C(Nc1ccc(F)cc1)ON=C1CCCCC1", "value": "105% [100 µM] (inactive)"}
{"compound": "NC(=S)N/N=C/c1ccc(Cl)s1", "value": "108% (inactive)"}
{"compound": "COc1ccc(N=N/N=c2\\sc3cc(OC)ccc3n2C)cc1", "value": "109% (inactive)"}
{"compound": "CCCCCCCCCCCCCCCC[N+](C)(CCO)Cc1cnc[nH]1 (stereo unspecified)", "value": "94.5% (inactive)"}
{"compound": "Nc1nc(N)c2c(ccc3c2ccn3Cc2cccc([N+](=O)[O-])c2)n1", "value": "22.5% (inactive)"}

----------
Below, each entry is listed alongside its reported growth.
- System: SF-539 CNS
- measurement_protocol: NCI-60 one-dose screen, 48 h (100 = growth as untreated, 0 = no growth, -100 = all killed)
- experimental_context: 10 µM unless noted
Compounds without any hit were thinned out: in the full panel of roughly 83,000, 20% have a hit.

{"compound": "CC(C)(C)CC(C)(C)c1ccc(OCCSC(=N)N)cc1", "target_of_assay": "SF-539 CNS", "growth / %": -6.57}
{"compound": "N#Cc1ccc([N+](=O)[O-])o1", "target_of_assay": "SF-539 CNS", "growth / %": 101}
{"compound": "CC(=O)C(=Cc1ccc(C=C(C(C)=O)C(C)=O)cc1)C(C)=O", "target_of_assay": "SF-539 CNS", "growth / %": -1.57}
{"compound": "NC1=CC(=O)c2ccccc2C1=O", "target_of_assay": "SF-539 CNS", "growth / %": 106}
{"compound": "c1ccc2c(c1)Nc1cc3ccccc3cc1N2", "target_of_assay": "SF-539 CNS", "growth / %": 39.1}
{"compound": "COC(=O)[C@@]12OC[C@]34[C@H]([C@@H](O)[C@@H]1O)[C@@]1(C)[C@H](O)C(=O)C=C(C)[C@@H]1C[C@H]3OC(=O)C(OC(C)=O)[C@@H]24 (stereo partly drawn)", "target_of_assay": "SF-539 CNS", "growth / %": -36.7}
{"compound": "Cc1ccc2nc(C[n+]3ccc4ccccc4c3)ccc2c1", "target_of_assay": "SF-539 CNS", "growth / %": 71.9}
{"compound": "N#CC1C(=O)SC2c3ccccc3C(=O)c3ccccc3C12 (stereo not drawn)", "target_of_assay": "SF-539 CNS", "growth / %": 114}
{"compound": "Oc1c(Br)c(Br)c(O)c(Br)c1Br", "target_of_assay": "SF-539 CNS", "growth / %": 119}
{"compound": "CNc1ccc(N)cc1", "target_of_assay": "SF-539 CNS", "growth / %": 96.8}
{"compound": "C/C=C1\\SC(=S)NC1=O", "target_of_assay": "SF-539 CNS", "growth / %": 93.9}
{"compound": "Nc1nc(N)c2c(ccc3c2ccn3Cc2cccc([N+](=O)[O-])c2)n1", "target_of_assay": "SF-539 CNS", "growth / %": -96.7}
{"compound": "Cc1cc(C(C)(CC(C)C)c2ccc(O)c(C)c2)ccc1O", "target_of_assay": "SF-539 CNS", "growth / %": 96.6}
{"compound": "C=CCOc1ccc(N=NC(C#N)C#N)cc1", "target_of_assay": "SF-539 CNS", "growth / %": 87}
{"compound": "Cc1ccc(N=C=C(c2ccccc2)c2ccccc2)cc1", "target_of_assay": "SF-539 CNS", "growth / %": 91}
{"compound": "Oc1c(Cl)c2ccccc2c2ccccc12", "target_of_assay": "SF-539 CNS", "growth / %": 107}
{"compound": "CN(C)c1ccc(N=Nc2cccc3ccccc23)cc1", "target_of_assay": "SF-539 CNS", "growth / %": 97.1}
{"compound": "CN(C)c1ccc(C(=C2C=CC(=[N+](C)C)C=C2)c2ccc(N(C)C)cc2)cc1 (tested in a mixture with another compound)", "target_of_assay": "SF-539 CNS", "growth / %": -94.2}
{"compound": "Cc1ccc2nc(-[n+]3cc4ccccc4cc3C)ccc2c1", "target_of_assay": "SF-539 CNS", "growth / %": 43.8}
{"compound": "COc1ccc(N=N/N=c2\\sc3cc(OC)ccc3n2C)cc1", "target_of_assay": "SF-539 CNS", "growth / %": 99.4}
{"compound": "CC(=O)ON=C1C=CC(=C(C#N)c2ccccc2)C=C1", "target_of_assay": "SF-539 CNS", "growth / %": 24.5}
{"compound": "O=C1N[C@H]2[C@H](CS[C@H]2CCCCC(=O)N(CCP(c2ccccc2)c2ccccc2)CCP(c2ccccc2)c2ccccc2)N1", "target_of_assay": "SF-539 CNS", "growth / %": 99.5}
{"compound": "CC1(C)CC([P+](c2ccccc2)(c2ccccc2)c2ccccc2)=NN1", "target_of_assay": "SF-539 CNS", "growth / %": 51}
{"compound": "NC(=S)N/N=C\\c1nccc2c(C(F)(F)C(F)(F)C(F)(F)F)cccc12", "target_of_assay": "SF-539 CNS", "growth / %": -10.3}
{"compound": "CN(C)CCOc1ccc2c(c1)C(=O)/C(=C\\c1ncc([N+](=O)[O-])n1C)C2", "target_of_assay": "SF-539 CNS", "growth / %": -73.2}
{"compound": "O=C(CC1(O)C(=O)Nc2c(Cl)ccc(Cl)c21)c1ccc(Cl)cc1Cl (stereo not drawn)", "target_of_assay": "SF-539 CNS", "growth / %": 103}
{"compound": "COc1cc(/C=C(/C)C[N+](=O)[O-])ccc1O", "target_of_assay": "SF-539 CNS", "growth / %": 105}
{"compound": "O=C1c2ccccc2C(=O)N1c1ccccc1", "target_of_assay": "SF-539 CNS", "growth / %": 103}
{"compound": "Nc1ccc(SSc2ccc(N)cc2)cc1", "target_of_assay": "SF-539 CNS", "growth / %": 106}
{"compound": "COC(=O)c1nc(=S)[nH]c(C(=O)OC)c1C(=O)c1ccc2ccccc2c1", "target_of_assay": "SF-539 CNS", "growth / %": 92.5}
{"compound": "O=Nc1ccccc1N=O", "target_of_assay": "SF-539 CNS", "growth / %": 76.2}
{"compound": "N#CSCc1ccc(CSC#N)c(Cl)c1", "target_of_assay": "SF-539 CNS", "growth / %": 58.8}
{"compound": "COC(=O)c1nc(=S)[nH]c(C(=O)OC)c1C(=O)c1ccccn1", "target_of_assay": "SF-539 CNS", "growth / %": 15.6}
{"compound": "Oc1c(Br)cc(Cl)cc1C(c1cc(Cl)cc(Br)c1O)C(Cl)(Cl)Cl", "target_of_assay": "SF-539 CNS", "growth / %": 30.8}
{"compound": "CNC(=O)N/N=C/c1ccc([N+](=O)[O-])o1", "target_of_assay": "SF-539 CNS", "growth / %": 110}
{"compound": "C1=C(c2ccccc2)C(c2ccc(OCCN3CCCCC3)cc2)Oc2ccccc21 (stereo not drawn)", "target_of_assay": "SF-539 CNS", "growth / %": 71.8}
{"compound": "CCCCCC(CCCCC)C(=O)O", "target_of_assay": "SF-539 CNS", "growth / %": 104}
{"compound": "CCC(CCCN(CC)CCc1ccccc1)OC(=O)c1cc(OC)c(OC)c(OC)c1 (stereo not drawn)", "target_of_assay": "SF-539 CNS", "growth / %": 93.1}
{"compound": "Cc1ccnc(NC(c2ccccc2)c2ccc3cccnc3c2O)c1 (stereo not drawn)", "target_of_assay": "SF-539 CNS", "growth / %": 24.7}
{"compound": "N#CSCc1c(Cl)cccc1Cl", "target_of_assay": "SF-539 CNS", "growth / %": 88.5}
{"compound": "O=C1c2ccccc2C(=O)c2sc(Nc3ccc(Cl)cc3)nc21", "target_of_assay": "SF-539 CNS", "growth / %": 2.24}
{"compound": "CN1c2ccccc2C(C)(C)C12C=Cc1cc(O)ccc1O2 (stereo not drawn)", "target_of_assay": "SF-539 CNS", "growth / %": 25.8}
{"compound": "S=C(N/N=C/c1ccccn1)Nc1ccccn1", "target_of_assay": "SF-539 CNS", "growth / %": 14.1}
{"compound": "Cc1ccc2c(ccc3c[n+]4c5ccccc5ccc4n32)c1", "target_of_assay": "SF-539 CNS", "growth / %": -3.04}
{"compound": "NC(=O)/C=C/C(=O)c1c(Cl)cccc1Cl", "target_of_assay": "SF-539 CNS", "growth / %": -95.4}
{"compound": "O=C(O)C1C2CC3C(OC(=O)C31)C2Br (stereo not drawn)", "target_of_assay": "SF-539 CNS", "growth / %": 99.5}
{"compound": "CC(C)(C)c1ccc(O)c(C2CCCCC2)c1", "target_of_assay": "SF-539 CNS", "growth / %": 121}
{"compound": "O=C(/C=C\\c1ccccc1)N1c2ccccc2CC1c1c[nH]c2ccccc12 (stereo not drawn)", "target_of_assay": "SF-539 CNS", "growth / %": 95.1}
